System: ACHN renal
Test: NCI tumour cell line growth inhibition, 48 h
quantity-measured: TGI (µM)
Answers are plain numbers, in µM.

INSERT INTO results (molecule, test_value) VALUES
  ('Oc1cccc(Cn2c(-c3cccc(O)c3O)nc3ccccc32)c1O', 11.8);

// next entry
In: Specify reported TGI for the molecule shown: CC1OC(O[C@H]2/C=C/C=C/C=C/C=C/C=C/C=C/C=C/[C@H](C)[C@@H](O)[C@@H](C)[C@H](C)OC(=O)C[C@H](O)C[C@H](O)CC[C@@H](O)[C@H](O)C[C@H](O)C[C@]3(O)C[C@H](O)[C@@H](C(=O)O)[C@H](C2)O3)C(O)C(N)C1O (some centres undefined)
Out: 20.5

Where do the numbers come from? From PubChem BioAssay (NCI).
